Subject Of Test: HLA-B*40:02
Assay Notes: IEDB peptide-MHC binding, purified MHC/competitive/radioactivity; filed as Kd, often an IC50 or EC50 that approximates it; bounds were set here for any values at or beyond the usual limits of such assays
Assay Conditions: source organism: Mammarenavirus machupoense
Reported Kd values follow for various sequences
The reply should be a number in nM, with the unit left off.

Solved cases (3 shown):
- QEKAPDVGEL: 1070
- KEPQKPLVL: 401
- GDEALTGFL: 2990

Alright, here's another sequence for you.
Briefly, Kd measured for "AENVIVGLV" : 30

---

Subject Of Test: HLA-B*18:01
Assay Notes: IEDB peptide-MHC binding, purified MHC/direct/fluorescence; filed as Kd, often an IC50 or EC50 that approximates it; bounds were set here for any values at or beyond the usual limits of such assays
Assay Conditions: source organism: Francisella tularensis subsp. tularensis FSC033
Assay Readout: pKd
Convention used: pKd is expressed as -log10 of the molar concentration.

The recorded pKd for entry "EFKQILTDF" equals 5.99
